Some compounds, each annotated with its measured Percent Effect.
- Study target: Aspartate--tRNA(Asp/Asn) ligase (Mycobacterium tuberculosis (strain ATCC 25618 / H37Rv)) (UniProt P9WFW3)
- Sequence (P9WFW3 whole entry): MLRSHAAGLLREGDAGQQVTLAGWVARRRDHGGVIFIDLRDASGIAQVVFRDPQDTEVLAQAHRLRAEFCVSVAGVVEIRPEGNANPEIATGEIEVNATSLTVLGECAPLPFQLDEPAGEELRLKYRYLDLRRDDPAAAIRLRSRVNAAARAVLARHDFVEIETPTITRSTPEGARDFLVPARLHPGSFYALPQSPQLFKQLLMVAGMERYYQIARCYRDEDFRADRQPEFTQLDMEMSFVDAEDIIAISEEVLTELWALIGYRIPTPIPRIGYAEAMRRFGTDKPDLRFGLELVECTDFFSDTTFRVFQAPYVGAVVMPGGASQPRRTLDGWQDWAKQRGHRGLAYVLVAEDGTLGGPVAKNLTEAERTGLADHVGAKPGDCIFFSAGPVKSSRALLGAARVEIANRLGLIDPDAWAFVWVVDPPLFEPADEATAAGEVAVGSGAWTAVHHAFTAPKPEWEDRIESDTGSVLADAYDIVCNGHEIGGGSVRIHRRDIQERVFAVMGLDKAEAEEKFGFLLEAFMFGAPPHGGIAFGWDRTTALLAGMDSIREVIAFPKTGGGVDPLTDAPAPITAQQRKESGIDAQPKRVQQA
- Assay summary: Assay for Asp RNA synthetase-1 from Mycobacterium tuberculosis
- Type: functional
- Set-up: scale not given: in the data most compounds retested in dose-response had high values
- Assay setup: 30 µM
Attribute measured: Percent Effect (%)

| Compound | Attribute measured | Quantitative readout |
| --- | --- | --- |
| O=C(Cc1cn2ccsc2n1)N1CCCC(n2cncn2)C1 (stereo not drawn) | Percent Effect | -0.0111 |
| O=c1[nH]c2c(c(=O)n1C1CCCCC1)CCC2NCCc1ccccc1 (stereo not drawn) | Percent Effect | -2.9 |
| O=C(c1nc(-c2ccc3cc[nH]c3c2)no1)N1CCCC1 | Percent Effect | -0.958 |
| COCCOc1ccccc1CNCc1c(C)nn(C)c1N(C)C | Percent Effect | 2.62 |
| CC(C)c1nnc2ccc(N3CCC(C(N)=O)CC3)nn12 | Percent Effect | -3.92 |
| COc1ncccc1C(=O)NCC1Cc2ccccc2O1 (stereo not drawn) | Percent Effect | 6.18 |
| CC(OCC(F)(F)F)C(=O)N1CCCCC1 (stereo not drawn) | Percent Effect | 1.09 |
| CC(C)(C)c1noc(CN2CCN(C(=O)c3cccs3)CC2)n1 | Percent Effect | 0.425 |
| Cc1nccn1-c1cccc(C2CCCN2S(=O)(=O)c2cn(C)cn2)n1 (stereo not drawn) | Percent Effect | 12.1 |
| CCS(=O)(=O)N1CCC(c2cc3n(n2)[C@@H](C(F)(F)F)C[C@@H](C)N3)CC1 | Percent Effect | 5.23 |
| Cc1noc(C)c1CN(C)C(=O)NC1CCN(C2CC2)CC1 | Percent Effect | -2.46 |
| CCOc1ncccc1NC(=O)N1CCc2ccccc2C1 | Percent Effect | 19.1 |
| CCN1CCN(C2CCN(Cc3c(C)noc3C)CC2)C1=O | Percent Effect | -5.48 |
| CCOc1ccc(-n2nnc(C(=O)O)c2-c2ccncc2)cc1 | Percent Effect | 3.77 |
| Cc1cccc(N2CCN(CCNC(=O)c3ccnn3C)CC2)c1 | Percent Effect | 5.62 |
| Fc1ccc(CN2CCCC(Cn3cncn3)C2)c2ncccc12 (stereo not drawn) | Percent Effect | 14.3 |
| CCN1CCCC1CN(CCN(C)C)S(=O)(=O)c1ccc(C#N)cc1 (stereo not drawn) | Percent Effect | -3.16 |
| Cc1oc(-c2ccco2)nc1CC(=O)N1CCC(C(O)C(F)(F)F)CC1 (stereo not drawn) | Percent Effect | -5.79 |
| CC(NC(=O)N1CCC(OCc2ccccc2)CC1)c1nncn1C (stereo not drawn) | Percent Effect | -3.22 |
| O=C(NCc1ccccn1)Nc1cc(C(F)(F)F)c[nH]c1=O | Percent Effect | 1.37 |
| c1ccc(OC[C@H]2CCC[C@]23CN(Cc2nccs2)CCO3)nc1 | Percent Effect | -0.162 |
| CCOC(=O)CN1CCC2(CC1)CC(=O)c1ccc(OC)cc1O2 | Percent Effect | -2.78 |
| CN(C)CCOCC1CN(CC2CCOCC2)Cc2nnn(C)c21 (stereo not drawn) | Percent Effect | -1.11 |
| Cc1cnn(CC2CCCCN2Cc2nnc(C3CC3)n2C)c1 (stereo not drawn) | Percent Effect | -3.3 |
| COc1c(C2CCCN2CC(=O)Nc2cc(C)no2)c(C)nn1C (stereo not drawn) | Percent Effect | 2.74 |
| Cc1noc(C)c1CN1CCc2nn(C(C)C)c(=O)cc2C1 | Percent Effect | 7.84 |
| CCS(=O)(=O)Nc1ccc(C(=O)NCCCN2CCCC2)cc1 | Percent Effect | 8.39 |
| CS(=O)(=O)c1ccc(OCCNCc2ccc(F)cc2F)cc1 | Percent Effect | 4.17 |
| CCOC(CC)C(=O)NCc1ccnc(Oc2ccc(F)cc2)c1 (stereo not drawn) | Percent Effect | 0.301 |
| O=C(c1cnco1)N1C[C@@H]2CC[C@H](Oc3cccc(F)c3)[C@@H]2C1 | Percent Effect | -3.5 |
| CCn1cc(NC(=O)NCC(C)O)cn1 (stereo not drawn) | Percent Effect | -3.08 |
| Cc1oc(C)c(C(=O)NCc2ccccc2S(=O)(=O)N(C)C)c1C | Percent Effect | -6.28 |
| CCOCCCNC(=O)c1cc(C)nc(N2CCCC2)n1 | Percent Effect | -5.84 |
| COCC(O)CN(C)C(=O)NC1CCN(Cc2ccccn2)CC1 (stereo not drawn) | Percent Effect | -3.52 |
| CCOCC(O)CN1CCN(C(=O)c2cc(F)ccc2C)CC1 (stereo not drawn) | Percent Effect | -0.759 |
| COc1cccc2c1OCC(C(=O)N1CCC(N3CCOC3=O)CC1)C2 (stereo not drawn) | Percent Effect | -3.21 |
| Cc1cnn(CCNCC(=O)NCC2(c3ccccc3)CCC2)c1 | Percent Effect | 4.12 |
| Cc1ncsc1CCC(=O)N1CCCC[C@H](N(C)C)C1 | Percent Effect | -3.74 |
| c1ccc(OC[C@@H]2CCC[C@@]23CNCCO3)nc1 | Percent Effect | 9.49 |
| CNc1cc2c(nn1)CCN(C(=O)c1ccoc1)C2 | Percent Effect | 0.663 |
| COc1ncccc1CN1C[C@@H]2COC[C@]2(COCC2CC2)C1 | Percent Effect | 0.116 |
| CCCn1nc2c(cc1=O)CN(CCCS(N)(=O)=O)CC2 | Percent Effect | 18.8 |
| O=C(Nc1cc(F)ccc1OCC1CCCO1)c1ccc(O)nc1 (stereo not drawn) | Percent Effect | 5.1 |
| Cc1cnn(CC2CCCN2CC(=O)N(C)Cc2ccc(C)o2)c1 (stereo not drawn) | Percent Effect | 0.457 |
| Cc1nc(NCCc2ccc(Cl)cc2)cc(C(=O)N2CCCCC2)n1 | Percent Effect | 12.4 |
| COc1cc(CNCc2ccc(NC(=O)NC(C)C)cc2)cc(OC)c1 | Percent Effect | 1.67 |
| COCCO[C@H]1CCN(Cc2cccs2)[C@H]1Cc1cccnc1 | Percent Effect | 0.0141 |
| Cc1ncsc1C(=O)NC1CCN(Cc2ccc(C#N)cc2)CC1 | Percent Effect | 1.55 |
